Provenance of the data: the supplement of paper PMC8149375

- Test system: SN12C
- Assay name: minimum viability across doses, drug alone, relative to DMSO (fraction); higher = less growth inhibition
- Condition details: treatment: drug alone; 5 days
Readout kind: minimum viability across doses
Give the figure only, with no unit attached.

Field: example entries. Status: answers known.
molecule=CCO.N#CC(=C(/N)Sc1ccccc1N)/C(C#N)=C(\N)Sc1ccccc1N reported_result=0.901
molecule="S=C(NCc1ccc2c(c1)OCO2)N1CCN(c2ncnc3c2oc2ccccc23)CC1 [Amuvatinib (MP-470)_R2]" reported_result=0.0284
molecule=Cl.Cl.Fc1cc(-c2cccc3ncc(-c4cnn(C5CCNCC5)c4)nc23)cc(F)c1CN1CCOCC1 reported_result=0.331

Note: attention shifts to another entry.
Which minimum viability across doses reading was recorded for the molecule COc1ccc(S(=O)(=O)N(C(C)=O)c2ccccc2/C=C/c2cc[n+]([O-])cc2)cc1 ? 0.167

----------
- Test system: CAKI-1
- Assay name: AUC of dose-response viability curve, drug + dasatinib, normalised to DMSO (arbitrary (AUC of normalised viability)); higher = less growth inhibition
- Condition details: treatment: drug + dasatinib (fixed dose, not stated); 5 days
Readout kind: AUC of dose-response viability curve
Give the figure only, with no unit attached.

Field: example entries. Status: answers known.
molecule="Cc1cc2c(F)c(Oc3ncnn4cc(OC[C@@H](C)OC(=O)[C@H](C)N)c(C)c34)ccc2[nH]1 + Cc1nc(Nc2ncc(C(=O)Nc3c(C)cccc3Cl)s2)cc(N2CCN(CCO)CC2)n1 [dasatinib]" reported_result=2.59
molecule="c1ccc2c(CCNc3ccc(Nc4ccncc4)cc3)c[nH]c2c1 + Cc1nc(Nc2ncc(C(=O)Nc3c(C)cccc3Cl)s2)cc(N2CCN(CCO)CC2)n1 [dasatinib]" reported_result=1.49

Note: attention shifts to another entry.
Which AUC of dose-response viability curve reading was recorded for the molecule Cc1c(CN2CCN(C(=O)[C@H](C)O)CC2)sc2c(N3CCOCC3)nc(-c3cnc(N)nc3)nc12 [GDC-0980 (RG7422)] + Cc1nc(Nc2ncc(C(=O)Nc3c(C)cccc3Cl)s2)cc(N2CCN(CCO)CC2)n1 [dasatinib] ? 1.36

----------
- System: ACHN
- Assay name: minimum viability across doses, drug + dasatinib, relative to DMSO (fraction); higher = less growth inhibition
- Condition details: treatment: drug + dasatinib (fixed dose, not stated); 5 days
Labelling field: enter MET if recorded minimum viability across doses is less than 0.1. Enter NOT MET if it equals or exceeds that cut-off.

These recorded examples may help you get a feel for the data.
compound="CN1CC[C@H](c2c(O)cc(O)c3c(=O)cc(-c4ccccc4Cl)oc23)[C@H](O)C1.Cl [Flavopiridol hydrochloride] + Cc1nc(Nc2ncc(C(=O)Nc3c(C)cccc3Cl)s2)cc(N2CCN(CCO)CC2)n1" classification=MET
compound="Nc1cccc2c1C(=O)N(C1CCC(=O)NC1=O)C2=O (configuration not stated) [Pomalidomide] + Cc1nc(Nc2ncc(C(=O)Nc3c(C)cccc3Cl)s2)cc(N2CCN(CCO)CC2)n1" classification="NOT MET"
compound="Oc1ccc(-c2nc(-c3ccc(F)cc3)c(-c3ccncc3)[nH]2)cc1 + Cc1nc(Nc2ncc(C(=O)Nc3c(C)cccc3Cl)s2)cc(N2CCN(CCO)CC2)n1" classification="NOT MET"
compound="CC(C)NC[C@@H](C(=O)N1CCN(c2ncnc3c2[C@H](C)C[C@H]3O)CC1)c1ccc(Cl)cc1 [GDC-0068] + Cc1nc(Nc2ncc(C(=O)Nc3c(C)cccc3Cl)s2)cc(N2CCN(CCO)CC2)n1" classification="NOT MET"
compound="N#CCNC(=O)c1ccc(-c2ccnc(Nc3ccc(N4CCOCC4)cc3)n2)cc1 [Cyt387] + Cc1nc(Nc2ncc(C(=O)Nc3c(C)cccc3Cl)s2)cc(N2CCN(CCO)CC2)n1" classification=MET
compound="Clc1ccc(C2(c3ccc(-c4cn[nH]c4)cc3)CCNCC2)cc1 [AT7867] + Cc1nc(Nc2ncc(C(=O)Nc3c(C)cccc3Cl)s2)cc(N2CCN(CCO)CC2)n1" classification=MET

Pending compound:
Identify whether the compound Cc1cc2c(C(C)C)c(O)c(O)c(C=O)c2c(O)c1-c1c(C)cc2c(C(C)C)c(O)c(O)c(C=O)c2c1O [AT101] + Cc1nc(Nc2ncc(C(=O)Nc3c(C)cccc3Cl)s2)cc(N2CCN(CCO)CC2)n1 records minimum viability across doses below 0.1. NOT MET

----------
Recorded AUC of dose-response viability curve by entry
- Test system: ACHN
- Assay name: AUC of dose-response viability curve, drug + dasatinib, normalised to DMSO (arbitrary (AUC of normalised viability)); higher = less growth inhibition
- Condition details: treatment: drug + dasatinib (fixed dose, not stated); 5 days
Give the figure only, with no unit attached.

compound="C=CC(=O)Nc1ccc2ncnc(Nc3ccc(OCc4cccc(F)c4)c(Cl)c3)c2c1.Cc1ccc(S(=O)(=O)O)cc1 [AST-1306] + Cc1nc(Nc2ncc(C(=O)Nc3c(C)cccc3Cl)s2)cc(N2CCN(CCO)CC2)n1" reported_result=1.62
compound="Oc1cccc(-c2nc(N3CCOCC3)c3oc4ncccc4c3n2)c1 [PI-103] + Cc1nc(Nc2ncc(C(=O)Nc3c(C)cccc3Cl)s2)cc(N2CCN(CCO)CC2)n1" reported_result=1.2
compound="Cc1c(CN2CCN(C(=O)[C@H](C)O)CC2)sc2c(N3CCOCC3)nc(-c3cnc(N)nc3)nc12 [GDC-0980 (RG7422)] + Cc1nc(Nc2ncc(C(=O)Nc3c(C)cccc3Cl)s2)cc(N2CCN(CCO)CC2)n1" reported_result=1.12

Note: attention shifts to another entry.
Give the reported AUC of dose-response viability curve for Cc1cc2c(C(C)C)c(O)c(O)c(C=O)c2c(O)c1-c1c(C)cc2c(C(C)C)c(O)c(O)c(C=O)c2c1O [AT101] + Cc1nc(Nc2ncc(C(=O)Nc3c(C)cccc3Cl)s2)cc(N2CCN(CCO)CC2)n1 (system: ACHN). 1.84

----------
Recorded AUC of dose-response viability curve by entry
- Tested on: UO-31
- Assay name: AUC of dose-response viability curve, drug + dasatinib, normalised to DMSO (arbitrary (AUC of normalised viability)); higher = less growth inhibition
- Condition details: treatment: drug + dasatinib (fixed dose, not stated); 5 days
Give the figure only, with no unit attached.

compound="CNC(=O)c1nn(C)c2c1C(C)(C)Cc1cnc(Nc3ccc(N4CCN(C)CC4)cc3)nc1-2 + Cc1nc(Nc2ncc(C(=O)Nc3c(C)cccc3Cl)s2)cc(N2CCN(CCO)CC2)n1 [dasatinib]" reported_result=2.02
compound="O=C1c2ccccc2-c2n[nH]c3cccc1c23 + Cc1nc(Nc2ncc(C(=O)Nc3c(C)cccc3Cl)s2)cc(N2CCN(CCO)CC2)n1 [dasatinib]" reported_result=3.27

Note: attention shifts to another entry.
Which AUC of dose-response viability curve reading was recorded for the compound CN1CCN(c2cccc(Nc3nc4c(-c5ccc(S(C)(=O)=O)cc5)cccn4n3)c2)CC1 + Cc1nc(Nc2ncc(C(=O)Nc3c(C)cccc3Cl)s2)cc(N2CCN(CCO)CC2)n1 [dasatinib] ? 3.59

----------
- Tested on: 786-O
- Assay name: AUC of dose-response viability curve, drug alone (arbitrary (AUC of normalised viability)); higher = less growth inhibition
- Condition details: treatment: drug alone; 5 days
Recorded AUC of dose-response viability curve by entry
Give the figure only, with no unit attached.

Field: example entries. Status: answers known.
compound=Clc1ccc(C2(c3ccc(-c4cn[nH]c4)cc3)CCNCC2)cc1 reported_result=2.05
compound=O=c1cc(N2CCOCC2)oc2c(-c3ccccc3)cccc12 reported_result=2.62
compound=C[C@@H](Oc1cc(-c2cnn(C3CCNCC3)c2)cnc1N)c1c(Cl)ccc(F)c1Cl reported_result=2.67
compound=c1ccc2c(-c3cnn4cc(-c5ccc(N6CCNCC6)cc5)cnc34)ccnc2c1 reported_result=3.55
compound=CNC(=O)c1c(F)cccc1Nc1nc(Nc2cc3c(cc2OC)CCN3C(=O)CN(C)C)nc2[nH]ccc12 reported_result=2.4
compound=c1ccc2c(CCNc3ccc(Nc4ccncc4)cc3)c[nH]c2c1 reported_result=0.978
compound=CS(=O)(=O)O.O=C(Nc1cccc(Cl)c1)Nc1ncc(CCNc2ncnc3ccsc23)s1 reported_result=1.76
compound=OCc1ccc(-c2ccc(-c3ccc(CO)s3)o2)s1 reported_result=1.04
compound=CC[C@H](Nc1ncnc2[nH]cnc12)c1nc2cccc(F)c2c(=O)n1-c1ccccc1 reported_result=3.15

Note: attention shifts to another entry.
Give the reported AUC of dose-response viability curve for COc1cc2c(N3CCN(C(=O)Nc4ccc(OC(C)C)cc4)CC3)ncnc2cc1OCCCN1CCCCC1 (system: 786-O). 3.61

----------
- System: 786-O
- Assay name: AUC of dose-response viability curve, drug + dasatinib, normalised to DMSO (arbitrary (AUC of normalised viability)); higher = less growth inhibition
- Condition details: treatment: drug + dasatinib (fixed dose, not stated); 5 days
Labelling field: enter satisfied if recorded AUC of dose-response viability curve is less than 2. Enter not satisfied if it equals or exceeds that cut-off.

These recorded examples may help you get a feel for the data.
molecule="O=C(Cc1ccc(-c2ccc(OCCN3CCOCC3)cc2)cn1)NCc1ccccc1 [KX2-391] + Cc1nc(Nc2ncc(C(=O)Nc3c(C)cccc3Cl)s2)cc(N2CCN(CCO)CC2)n1" measurement_target=786-O classification=satisfied
molecule="C[C@@H](N)[C@H]1CC[C@H](C(=O)Nc2ccncc2)CC1.Cl.Cl + Cc1nc(Nc2ncc(C(=O)Nc3c(C)cccc3Cl)s2)cc(N2CCN(CCO)CC2)n1" measurement_target=786-O classification="not satisfied"
molecule="CC[C@@H]1C(=O)N(C)c2cnc(Nc3ccc(C(=O)NC4CCN(C)CC4)cc3OC)nc2N1C1CCCC1 [BI 2536] + Cc1nc(Nc2ncc(C(=O)Nc3c(C)cccc3Cl)s2)cc(N2CCN(CCO)CC2)n1" measurement_target=786-O classification=satisfied
molecule="N#C/C(=C\\c1ccc(O)c(O)c1)C(=O)NCc1ccccc1 [AG-490] + Cc1nc(Nc2ncc(C(=O)Nc3c(C)cccc3Cl)s2)cc(N2CCN(CCO)CC2)n1" measurement_target=786-O classification="not satisfied"
molecule="CC(C)c1ccccc1Cc1cc(C(=O)Nc2ccc(S(=O)(=O)c3ccccc3C(C)(C)C)cc2)c(O)c(O)c1O [TW-37] + Cc1nc(Nc2ncc(C(=O)Nc3c(C)cccc3Cl)s2)cc(N2CCN(CCO)CC2)n1" measurement_target=786-O classification="not satisfied"
molecule="CCn1c(-c2nonc2N)nc2c(C#CC(C)(C)O)ncc(OC[C@H]3CCCNC3)c21 + Cc1nc(Nc2ncc(C(=O)Nc3c(C)cccc3Cl)s2)cc(N2CCN(CCO)CC2)n1" measurement_target=786-O classification=satisfied
molecule="O=C(Nc1ccc(OC(F)(F)F)cc1)c1sccc1NCc1ccnc2ccccc12 [OSI-930] + Cc1nc(Nc2ncc(C(=O)Nc3c(C)cccc3Cl)s2)cc(N2CCN(CCO)CC2)n1" measurement_target=786-O classification="not satisfied"
molecule="Cc1cc2c(F)c(Oc3ncnn4cc(OC[C@@H](C)OC(=O)[C@H](C)N)c(C)c34)ccc2[nH]1 + Cc1nc(Nc2ncc(C(=O)Nc3c(C)cccc3Cl)s2)cc(N2CCN(CCO)CC2)n1" measurement_target=786-O classification="not satisfied"

Pending molecule:
Identify whether the molecule O=C1NCCc2[nH]c(-c3ccncc3)cc21 + Cc1nc(Nc2ncc(C(=O)Nc3c(C)cccc3Cl)s2)cc(N2CCN(CCO)CC2)n1 records AUC of dose-response viability curve below 2. satisfied
